test system: NCI-H3122 (EML4-ALK, V1) cells; assay: Growth inhibition IC50 in lung cancer H3122 cells (Cell Titer Blue / Cell Titer Glo); details: H3122 cells, CTB (Cell Titer Blue)
property name: pIC50
Note on pIC50: it is the negative log10 of concentration, concentration in mol/L.

I am curious: what pIC50 value has been reported for Cc1cc(Nc2ncc(Cl)c(Nc3ccccc3S(=O)(=O)C(C)C)n2)c(OC(C)C)cc1C1CCNCC1 [Ceritinib, reference compound] ?
7.85

* * *

Provide the reported DC50 of each item.
target: ALK protein in H3122 (EML4-ALK) cells (Homo sapiens, UniProt Q9UM73); construct: EML4 (Echinoderm microtubule-associated protein-like 4, Q9HC35) fusion partner, variant 1; host or cells: NCI-H3122 lung adenocarcinoma cells; the other entry of the earlier key: EML4 (Q9HC35, Echinoderm microtubule-associated protein-like 4); assay: Western blot of ALK protein level (degradation, DC50), ALK phosphorylation and downstream signaling in H3122 cells; type: cell-based; conditions: ALK protein degradation in H3122 cells
Sequence (Q9UM73 with tags, fused parts or gaps): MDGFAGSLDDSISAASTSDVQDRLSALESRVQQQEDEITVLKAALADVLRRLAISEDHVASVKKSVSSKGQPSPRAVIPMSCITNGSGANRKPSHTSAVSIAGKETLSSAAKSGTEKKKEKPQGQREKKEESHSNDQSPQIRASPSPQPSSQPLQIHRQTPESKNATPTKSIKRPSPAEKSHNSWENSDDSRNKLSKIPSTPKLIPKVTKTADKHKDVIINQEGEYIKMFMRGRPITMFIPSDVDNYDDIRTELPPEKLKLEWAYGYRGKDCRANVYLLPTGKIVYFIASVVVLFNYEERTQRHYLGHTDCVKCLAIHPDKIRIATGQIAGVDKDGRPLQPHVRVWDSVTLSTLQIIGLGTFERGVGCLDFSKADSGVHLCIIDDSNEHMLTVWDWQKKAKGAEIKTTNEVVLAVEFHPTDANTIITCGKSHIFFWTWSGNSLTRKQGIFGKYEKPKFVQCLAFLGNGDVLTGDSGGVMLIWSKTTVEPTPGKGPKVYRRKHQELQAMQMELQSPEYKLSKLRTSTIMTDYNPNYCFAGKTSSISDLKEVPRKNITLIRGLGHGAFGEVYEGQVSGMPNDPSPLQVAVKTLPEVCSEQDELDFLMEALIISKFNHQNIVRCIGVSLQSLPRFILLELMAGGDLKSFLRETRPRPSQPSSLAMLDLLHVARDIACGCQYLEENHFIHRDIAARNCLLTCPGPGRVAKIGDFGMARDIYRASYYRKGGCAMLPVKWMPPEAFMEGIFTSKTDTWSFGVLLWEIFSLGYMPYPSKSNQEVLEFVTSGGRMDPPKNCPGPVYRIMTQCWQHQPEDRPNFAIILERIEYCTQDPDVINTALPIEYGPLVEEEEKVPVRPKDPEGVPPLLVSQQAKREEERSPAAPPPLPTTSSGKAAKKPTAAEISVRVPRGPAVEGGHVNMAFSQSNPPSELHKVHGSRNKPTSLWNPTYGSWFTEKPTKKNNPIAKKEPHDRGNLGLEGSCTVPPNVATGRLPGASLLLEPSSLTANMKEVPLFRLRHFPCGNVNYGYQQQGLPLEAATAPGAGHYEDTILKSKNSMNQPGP

# DC50 lookup, item COc1cc(N2CCC(NC(=O)CCCCCCNc3cccc4c3C(=O)N(C3CCC(=O)NC3=O)C4=O)CC2)ccc1Nc1ncc(Cl)c(Nc2ccccc2P(C)(C)=O)n1 (stereo not drawn) [SIAIS151123]
1 to 50 nM

Query: DC50; subject: Cc1cc(Nc2ncc(Cl)c(Nc3ccccc3S(=O)(=O)C(C)C)n2)c(OC(C)C)cc1C1CCN(C(=O)CCCNc2cccc3c2C(=O)N(C2CCC(=O)NC2=O)C3=O)CC1 (stereo not drawn) [SIAIS151035]
50 to 100 nM

Which measured DC50 value corresponds to COc1cc(N2CCN(C(=O)CCOCCOCCOCCNc3cccc4c3C(=O)N(C3CCC(=O)NC3=O)C4=O)CC2)ccc1Nc1ncc(C)c(Nc2ccccc2P(C)(C)=O)n1 (stereo not drawn) [SIAIS1197069] ?
100 to 500 nM

// query DC50 value for entry CCc1cc2c(cc1N1CCN(C(=O)CCCCCNc3cccc4c3C(=O)N(C3CCC(=O)NC3=O)C4=O)CC1)C(C)(C)c1[nH]c3cc(C#N)ccc3c1C2=O (stereo not drawn) [SIAIS164026]
1 to 10 nM

Could you share which DC50 value was measured for COc1cc(N2CCN(C(=O)COCCOCC(=O)N[C@H](C(=O)N3C[C@H](O)C[C@H]3C(=O)NCc3ccc(-c4scnc4C)cc3)C(C)(C)C)CC2)ccc1Nc1ncc(Cl)c(Nc2ccccc2P(C)(C)=O)n1 [SIAIS1197087] ?
50 to 500 nM

For the molecule COc1cc(N2CCC(N3CCN(C(=O)CCCCCCNc4cccc5c4C(=O)N(C4CCC(=O)NC4=O)C5=O)CC3)CC2)ccc1Nc1ncc(Cl)c(Nc2ccccc2P(C)(C)=O)n1 (stereo not drawn) [SIAIS164023] , what DC50 is on record?
1 to 10 nM

Query (molecule): COc1cc(N2CCN(C(=O)CCCCCNc3cccc4c3C(=O)N(C3CCC(=O)NC3=O)C4=O)CC2)ccc1Nc1ncc(Cl)c(Nc2ccccc2P(C)(C)=O)n1 (stereo not drawn) [SIAIS1197063] ; field requested: DC50
50 to 500 nM

What does the record list as DC50 for COc1cc(N2CCC(N3CCN(C(=O)CCOCCOCCOCCNc4cccc5c4C(=O)N(C4CCC(=O)NC4=O)C5=O)CC3)CC2)ccc1Nc1ncc(Cl)c(Nc2ccccc2P(C)(C)=O)n1 (stereo not drawn) [SIAIS164009] ?
1 to 10 nM

Consider the molecule COc1cc(N2CCC(N3CCN(C(=O)CCC(=O)N[C@H](C(=O)N4C[C@H](O)C[C@H]4C(=O)NCc4ccc(-c5scnc5C)cc4)C(C)(C)C)CC3)CC2)ccc1Nc1ncc(Cl)c(Nc2ccccc2P(C)(C)=O)n1 [SIAIS164120] and give its measured DC50.
10 to 100 nM

Data request, read-out DC50, for COc1cc(N2CCC(NC(=O)CCOCCOCCC(=O)N[C@H](C(=O)N3C[C@H](O)C[C@H]3C(=O)NCc3ccc(-c4scnc4C)cc3)C(C)(C)C)CC2)ccc1Nc1ncc(Cl)c(Nc2ccccc2P(C)(C)=O)n1 [SIAIS151124]
100 to 500 nM

Report DC50 for Cc1cc(Nc2ncc(Cl)c(Nc3ccccc3S(=O)(=O)C(C)C)n2)c(OC(C)C)cc1C1CCN(C(=O)CCCCC(=O)N[C@H](C(=O)N2C[C@H](O)C[C@H]2C(=O)NCc2ccc(-c3scnc3C)cc2)C(C)(C)C)CC1 [SIAIS074021] please.
50 to 100 nM

# input molecule: COc1cc(N2CCC(NC(=O)CCC(=O)N[C@H](C(=O)N3C[C@H](O)C[C@H]3C(=O)NCc3ccc(-c4scnc4C)cc3)C(C)(C)C)CC2)ccc1Nc1ncc(Cl)c(Nc2ccccc2P(C)(C)=O)n1 [SIAIS164143] ; wanted: its DC50
50 to 100 nM
